tgt: UniProtKB P09238
Sequence (P09238 99-476): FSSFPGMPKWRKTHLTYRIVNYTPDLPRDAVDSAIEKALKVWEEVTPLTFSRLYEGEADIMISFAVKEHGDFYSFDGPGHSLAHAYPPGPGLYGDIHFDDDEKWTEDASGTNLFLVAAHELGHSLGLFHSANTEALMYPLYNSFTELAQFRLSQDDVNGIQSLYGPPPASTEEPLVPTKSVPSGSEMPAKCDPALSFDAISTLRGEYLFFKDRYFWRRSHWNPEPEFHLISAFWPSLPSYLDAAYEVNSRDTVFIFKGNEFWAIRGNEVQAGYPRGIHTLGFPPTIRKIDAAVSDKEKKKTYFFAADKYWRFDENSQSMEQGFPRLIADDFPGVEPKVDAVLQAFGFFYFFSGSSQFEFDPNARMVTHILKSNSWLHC
test protocol: Inhibition constant (Ki) on MMP-10h
Assay type: biochemical
cond: human MMP-10
recorded metric: Ki (µM)
Answers are plain numbers, in µM.

Please review the following examples before continuing.
>  <smiles str>
NC(=O)[C@H](CCC(=O)O)NC(=O)[C@H](CCC(=O)O)NC(=O)CCc1ccc(-c2ccsc2)cc1

>  <tgt>
UniProtKB P09238

>  <Ki (µM)>
0.446

$$$$
>  <smiles str>
NC(=O)[C@H](CCC(=O)O)NC(=O)[C@H](CCC(=O)O)NC(=O)CCc1ccc(-c2csnn2)cc1

>  <tgt>
UniProtKB P09238

>  <Ki (µM)>
0.679

$$$$
>  <smiles str>
NC(=O)[C@H](CCC(=O)O)NC(=O)[C@H](CCC(=O)O)NC(=O)CCc1ccc(-c2nc3ccccc3s2)cc1

>  <tgt>
UniProtKB P09238

>  <Ki (µM)>
0.099

$$$$

Turning to the following compound.
Which value of Ki has been reported for "NC(=O)[C@H](CC(=O)O)NC(=O)[C@H](CCC(=O)O)NC(=O)CCc1cc(-c2ccc(-c3ccccc3)cc2)no1" in the records? 0.196

* * *

So I've got a bunch of compounds here, and I need their Ki values.
tgt: MMP-9h (Homo sapiens (Human))
Sequence (P14780 94-707): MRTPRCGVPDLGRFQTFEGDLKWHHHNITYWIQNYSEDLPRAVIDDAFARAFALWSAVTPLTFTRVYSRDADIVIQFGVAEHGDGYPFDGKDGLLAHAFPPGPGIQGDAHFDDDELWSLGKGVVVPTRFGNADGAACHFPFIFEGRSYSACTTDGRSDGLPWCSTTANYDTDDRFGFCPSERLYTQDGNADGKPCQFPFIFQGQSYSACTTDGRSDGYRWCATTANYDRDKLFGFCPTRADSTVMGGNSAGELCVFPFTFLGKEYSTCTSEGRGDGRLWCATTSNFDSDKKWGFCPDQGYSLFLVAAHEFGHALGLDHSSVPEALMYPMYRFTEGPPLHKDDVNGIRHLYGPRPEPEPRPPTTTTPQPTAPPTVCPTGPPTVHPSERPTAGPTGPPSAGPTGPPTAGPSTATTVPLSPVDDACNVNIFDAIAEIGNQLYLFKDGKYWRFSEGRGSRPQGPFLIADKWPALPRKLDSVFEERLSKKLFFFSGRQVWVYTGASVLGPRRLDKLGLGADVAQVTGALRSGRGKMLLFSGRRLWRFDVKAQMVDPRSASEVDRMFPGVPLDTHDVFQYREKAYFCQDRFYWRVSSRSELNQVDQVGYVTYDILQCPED
test protocol: Inhibition constant (Ki) on MMP-9h
Format: biochemical
cond: read-out: Ki MMP-9h; human MMP-9

>  <smiles str>
NC(=O)[C@H](CC(=O)O)NC(=O)[C@H](CC(=O)O)NC(=O)CCc1cc(-c2ccc(-c3cccc(Cl)c3)cc2)no1

>  <Ki>
> 1000 nM

$$$$
>  <smiles str>
NC(=O)CC[C@H](NC(=O)[C@H](CCC(=O)O)NC(=O)CCc1cc(-c2ccc(-c3ccccc3)cc2)no1)C(N)=O

>  <Ki>
> 1000 nM

$$$$
>  <smiles str>
O=C(O)CC[C@H](NC(=O)CCc1ccc(-c2cccs2)cc1)C(=O)Nc1cccc(CC(=O)O)c1

>  <Ki>
284 nM

$$$$
>  <smiles str>
C[C@H](NC(=O)[C@H](CCC(=O)O)NC(=O)CCc1ccc(-c2ccc(-c3ccccc3)cc2)cc1)C(N)=O

>  <Ki>
> 10000 nM

$$$$
>  <smiles str>
NC(=O)[C@H](CCC(=O)O)NC(=O)[C@H](CCC(=O)O)NC(=O)CCc1ccc(-c2cccc(CO)c2)cc1

>  <Ki>
> 5000 nM

$$$$

Please give Ki for each item listed below.
1. NC(=O)[C@H](CCC(=O)O)NC(=O)[C@@H](CCC(=O)O)NC(=O)CCc1cc(-c2ccc(-c3cccc(Cl)c3)cc2)no1
2. O=C(O)CC[C@H](NC(=O)CCc1ccc(-c2ccccc2)cc1)C(=O)Nc1cccc(CC(=O)O)c1

> 5000 nM
> 1000 nM

* * *

tgt: UniProt P45452
test protocol: Inhibition constant (Ki) on MMP-13h
Type: biochemical
cond: read-out: Ki MMP-13h; human MMP-13
recorded metric: log10 Ki (log10 of the value in nM)
Reminder: these figures are log10 of reported Ki, in nM before transformation.

>  <smiles str>
NC(=O)[C@H](CC(=O)O)NC(=O)[C@H](CCC(=O)O)NC(=O)CCc1ccc(-c2ccc(-c3ccccc3)cc2)cc1

>  <recorded number>
1.36

$$$$
>  <smiles str>
NC(=O)CC[C@H](NC(=O)[C@H](CCC(N)=O)NC(=O)CCc1cc(-c2ccc(-c3ccccc3)cc2)no1)C(N)=O

>  <recorded number>
2.64

$$$$
>  <smiles str>
NC(=O)[C@H](CCC(=O)O)NC(=O)[C@H](CC(=O)O)NC(=O)CCc1cc(-c2ccc(-c3cccc(Cl)c3)cc2)no1

>  <recorded number>
1.54

$$$$

Please give log10 Ki for each item listed below.
1. C[C@H](NC(=O)[C@H](CCC(=O)O)NC(=O)CCc1ccc(-c2ccc(-c3ccccc3)cc2)cc1)C(N)=O
2. NC(=O)[C@H](CCC(=O)O)NC(=O)[C@H](CO)NC(=O)CCc1ccc(-c2ccc(-c3ccccc3)cc2)cc1

[1.21, 2.56]

* * *

So I've got a bunch of molecules here, and I need their Ki values.
tgt: MMP-8h (Homo sapiens (Human), UniProt P22894)
Sequence (P22894 101-467): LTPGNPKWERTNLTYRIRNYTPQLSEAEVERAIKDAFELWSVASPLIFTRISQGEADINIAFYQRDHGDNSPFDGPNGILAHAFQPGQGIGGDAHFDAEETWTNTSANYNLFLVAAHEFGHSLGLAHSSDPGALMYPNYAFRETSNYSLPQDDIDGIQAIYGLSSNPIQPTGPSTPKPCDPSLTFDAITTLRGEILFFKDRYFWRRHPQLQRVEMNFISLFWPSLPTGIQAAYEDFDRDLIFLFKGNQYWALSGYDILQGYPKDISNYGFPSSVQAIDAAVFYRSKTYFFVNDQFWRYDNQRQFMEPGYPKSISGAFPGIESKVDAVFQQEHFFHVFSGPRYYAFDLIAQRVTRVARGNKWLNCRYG
test protocol: Inhibition constant (Ki) on MMP-8h
Format: biochemical
cond: read-out: Ki MMP-8h; human MMP-8
Numbers only, in nM.

>  <smiles str>
O=C(O)CC[C@H](NC(=O)CCc1ccc(-c2ccc(-c3ccccc3)cc2)cc1)C(=O)Nc1cccc(CC(=O)O)c1

>  <recorded metric>
Ki

>  <recorded number>
99

$$$$
>  <smiles str>
Cc1csc(-c2ccc(CCC(=O)N[C@@H](CCC(=O)O)C(=O)N[C@@H](CCC(=O)O)C(N)=O)cc2)c1

>  <recorded metric>
Ki

>  <recorded number>
233

$$$$
>  <smiles str>
NC(=O)[C@H](CCC(=O)O)NC(=O)[C@H](CCC(=O)O)NC(=O)CCc1ccc(-c2cccs2)cc1

>  <recorded metric>
Ki

>  <recorded number>
40

$$$$
>  <smiles str>
NC(=O)CC[C@H](NC(=O)[C@H](CCC(N)=O)NC(=O)CCc1ccc(-c2ccccc2)cc1)C(N)=O

>  <recorded metric>
Ki

>  <recorded number>
657

$$$$
>  <smiles str>
NC(=O)[C@H](CCCC(=O)O)NC(=O)[C@H](CCC(=O)O)NC(=O)CCc1cc(-c2ccc(-c3cccc(Cl)c3)cc2)no1

>  <recorded metric>
Ki

>  <recorded number>
452

$$$$
>  <smiles str>
NC(=O)[C@H](CCCC(=O)O)NC(=O)[C@H](CCC(=O)O)NC(=O)CCc1ccc(-c2cc(-c3ccccc3)cs2)cc1

>  <recorded metric>
Ki

>  <recorded number>
656

$$$$
>  <smiles str>
O=C(O)CC[C@H](NC(=O)CCc1ccc(-c2cccs2)cc1)C(=O)Nc1cccc(CC(=O)O)c1

>  <recorded metric>
Ki

>  <recorded number>
18

$$$$
>  <smiles str>
NCCCC[C@H](NC(=O)[C@H](CCC(=O)O)NC(=O)CCc1ccc(-c2ccccc2)cc1)C(N)=O

>  <recorded metric>
Ki

>  <recorded number>
414

$$$$
>  <smiles str>
NC(=O)[C@H](CCC(=O)O)NC(=O)[C@H](CCC(=O)O)NC(=O)CCc1cc(-c2ccc(-c3cccc(Cl)c3)cc2)no1

>  <recorded metric>
Ki

>  <recorded number>
181

$$$$
>  <smiles str>
Cc1ccc(-c2ccc(CCC(=O)N[C@@H](CCC(=O)O)C(=O)N[C@@H](CCC(=O)O)C(N)=O)cc2)s1

>  <recorded metric>
Ki

>  <recorded number>
10.3

$$$$

Turning to the following molecule.
MMP-8h (Homo sapiens (Human), UniProt P22894) / Ki / "NC(=O)[C@H](CCC(=O)O)NC(=O)[C@H](CCC(=O)O)NC(=O)CCc1cc(-c2ccccc2)on1" : value? 332

* * *

tgt: MMP-14h (Homo sapiens (Human), UniProt P50281)
test protocol: Inhibition constant (Ki) on MMP-14h
Assay type: biochemical
cond: read-out: Ki MMP-14h; human MMP-14
So I've got a bunch of molecules here, and I need their Ki values.

Please review the following examples before continuing.
>  <molecule>
Cn1ccc(-c2ccc(CCC(=O)N[C@@H](CCC(=O)O)C(=O)N[C@@H](CCC(=O)O)C(N)=O)cc2)n1 [Compound 33]

>  <tgt>
MMP-14h (Homo sapiens (Human), UniProt P50281)

>  <Ki>
> 1000 nM

$$$$
>  <molecule>
NC(=O)[C@H](CC(=O)O)NC(=O)[C@H](CCC(=O)O)NC(=O)CCc1ccc(-c2ccc(-c3ccccc3)cc2)cc1 [Compound 64]

>  <tgt>
MMP-14h (Homo sapiens (Human), UniProt P50281)

>  <Ki>
> 5000 nM

$$$$
>  <molecule>
NC(=O)[C@H](CO)NC(=O)[C@H](CCC(=O)O)NC(=O)CCc1ccc(-c2ccc(-c3ccccc3)cc2)cc1 [Compound 68]

>  <tgt>
MMP-14h (Homo sapiens (Human), UniProt P50281)

>  <Ki>
> 1000 nM

$$$$

Please give Ki for each item listed below.
1. NC(=O)[C@H](CCC(=O)O)NC(=O)[C@H](CCC(=O)O)NC(=O)CCc1ccc(-c2cccc(N)c2)cc1 [Compound 53]
2. CC(C)C[C@H](NC(=O)[C@H](CCC(=O)O)NC(=O)CCc1ccc(-c2ccc(-c3ccccc3)cc2)cc1)C(N)=O [Compound 69]
3. NC(=O)[C@H](CCC(=O)O)NC(=O)[C@H](CCC(=O)O)NC(=O)CCc1ccc(C#Cc2ccccc2)cc1 [Compound 30]
4. NCCCC[C@H](NC(=O)CCc1ccc(-c2ccc(-c3ccccc3)cc2)cc1)C(=O)N[C@@H](CCC(=O)O)C(N)=O [Compound 73]
5. NC(=O)[C@H](CC(=O)O)NC(=O)[C@H](CC(=O)O)NC(=O)CCc1cc(-c2ccc(-c3ccccc3)cc2)no1 [Compound 19]
6. NC(=O)[C@H](CCC(=O)O)NC(=O)[C@H](CC(=O)O)NC(=O)CCc1cc(-c2ccc(-c3cccc(Cl)c3)cc2)no1 [Compound 9]
7. NC(=O)CC[C@H](NC(=O)[C@H](CCC(N)=O)NC(=O)CCc1ccc(-c2ccccc2)cc1)C(N)=O [Compound 43]

1: > 1000 nM; 2: > 5000 nM; 3: > 1000 nM; 4: > 10000 nM; 5: > 1000 nM; 6: > 5000 nM; 7: > 5000 nM

Please give Ki for each item listed below.
1. NC(=O)[C@H](CCC(=O)O)NC(=O)[C@H](CCC(=O)O)NC(=O)CCc1ccc(COc2ccccc2)cc1 [Compound 29]
2. NC(=O)[C@H](CCC(=O)O)NC(=O)[C@H](CCC(=O)O)NC(=O)CCc1ccc(-c2cccc(Cl)c2)cc1 [Compound 57]
3. NC(=O)[C@H](Cc1ccc(O)cc1)NC(=O)[C@H](CCC(=O)O)NC(=O)CCc1ccc(-c2cccs2)cc1 [Compound 84]
4. NC(=O)[C@H](Cc1c[nH]cn1)NC(=O)[C@H](CCC(=O)O)NC(=O)CCc1ccc(-c2ccc(-c3ccccc3)cc2)cc1 [Compound 67]

1. > 5000 nM
2. > 10000 nM
3. > 1000 nM
4. > 1000 nM
